- Species: Rattus norvegicus
- method_notes: DrugMatrix - Regimen: Daily Repeat
- Assay type: toxicity, organism-based, Sprague-Dawley
- Parameters: regimen Daily Repeat, gender Male, age 6-8 weeks
- condition: in vivo, po, 0 mg/kg, 120 h, tissue Blood, route oral GAVAGE, dose level Control, time 5 day, […]
For each record, write down the corresponding LYMPHOCYTE.
One number for each entry, in %.

Recorded results for 4 molecules are shown here.
- molecule: "CCOC(=O)C1=C(C)NC(C)=C(C(=O)OCC)C1c1ccccc1/C=C/C(=O)OC(C)(C)C"
  assay_endpoint: "LYMPHOCYTE"
  value_unit: "%"
  endpoint_value: 94.33
- molecule: "c1ccc2c(c1)Nc1ccccc1S2"
  assay_endpoint: "LYMPHOCYTE"
  value_unit: "%"
  endpoint_value: 89.67
- molecule: "CC(C)(c1ccc(O)cc1)c1ccc(O)cc1"
  assay_endpoint: "LYMPHOCYTE"
  value_unit: "%"
  endpoint_value: 90.17
- molecule: "COc1ccccc1OCCNCC(O)COc1cccc2[nH]c3ccccc3c12 (stereo not given)"
  assay_endpoint: "LYMPHOCYTE"
  value_unit: "%"
  endpoint_value: 88.67

Query: Output measured LYMPHOCYTE for this item: CS(=O)(=O)c1ccc(C2=C(c3ccccc3)C(=O)OC2)cc1
Reply: 89.67

---

- Species on record: Rattus norvegicus
- method_notes: DrugMatrix - Regimen: Daily Repeat
- Format: toxicity, organism-based, Sprague-Dawley
- Design: regimen Daily Repeat, gender Male, age 6-8 weeks
- condition: in vivo, po, 0 mg/kg, 120 h, tissue Plasma, route oral GAVAGE, dose level Control, time 5 day, vehicle 100 % WATER
For each record, write down the corresponding CARBON DIOXIDE.
Give bare numbers, in mmol/L.

Recorded results for 7 molecules are shown here.
- molecule: "NN [HYDRAZINE]"
  value_unit: "mmol/L"
  CARBON DIOXIDE: 27.17
- molecule: "C1CCN2C[C@@H]3C[C@@H](CN4CCCC[C@@H]34)[C@H]2C1 [SPARTEINE]"
  value_unit: "mmol/L"
  CARBON DIOXIDE: 32.33
- molecule: "Cc1cc(C(C)(C)C)c(O)c(C)c1CC1=NCCN1 [OXYMETAZOLINE]"
  value_unit: "mmol/L"
  CARBON DIOXIDE: 29.33
- molecule: "CCC1(c2ccccc2)C(=O)NC(=O)NC1=O [PHENOBARBITAL]"
  value_unit: "mmol/L"
  CARBON DIOXIDE: 31
- molecule: "CCN(CC)C(=S)SSC(=S)N(CC)CC"
  value_unit: "mmol/L"
  CARBON DIOXIDE: 33.83
- molecule: "C[N+](C)(C)CCOC(N)=O.[Cl-] [CARBACHOL]"
  value_unit: "mmol/L"
  CARBON DIOXIDE: 31.33
- molecule: "Cc1cn([C@H]2C=C[C@@H](CO)O2)c(=O)[nH]c1=O [STAVUDINE]"
  value_unit: "mmol/L"
  CARBON DIOXIDE: 31.33

In the following, a different molecule is considered.
Query: Output measured CARBON DIOXIDE for this item: CC(Cl)(Cl)Cl [TRICHLOROETHANE]
Reply: 32.33

---

- Species on record: Rattus norvegicus
- method_notes: DrugMatrix - Regimen: Daily Repeat
- Format: toxicity, organism-based, Sprague-Dawley
- Set-up: regimen Daily Repeat, gender Male, age 6-8 weeks
- condition: in vivo, po, 0 mg/kg, 120 h, tissue Plasma, route oral GAVAGE, dose level Control, time 5 day, vehicle .5 % CMC
Just so you know, the groups by CREATININE go like this: low value = under 0.2 mg/dL, medium value = from 0.2 mg/dL up to 0.5 mg/dL, high value = 0.5 mg/dL and over

- molecule: "COc1cc(NC(C)CCCN)c2ncccc2c1 (configuration not stated) [PRIMAQUINE]"
  label: "high value"
- molecule: "O=C1c2ccccc2C(=O)C1c1ccccc1 [PHENINDIONE]"
  label: "high value"
- molecule: "CCN1CCCC1CNC(=O)c1cc(S(N)(=O)=O)ccc1OC (configuration not stated) [SULPIRIDE]"
  label: "medium value"
- molecule: "Cl.NC[C@H]1CC[C@H](C(=O)Oc2ccc(CCC(=O)O)cc2)CC1 [CETRAXATE HYDROCHLORIDE]"
  label: "medium value"
- molecule: "CCN1C[C@]2(COC)[C@H](O)C[C@H](OC)[C@@]34[C@@H]5C[C@@]6(O)[C@H](OC(=O)c7ccccc7)[C@@H]5[C@@](OC(C)=O)([C@@H]([C@H](OC)[C@H]23)[C@@H]14)[C@@H](O)[C@@H]6OC [ACONITINE]"
  label: "high value"

Query: Which bin should I file CN(C)CCOC(c1ccccc1)c1ccccc1.Cn1c(=O)c2[nH]c(Cl)nc2n(C)c1=O [DIMENHYDRINATE] under?
Reply: medium value

Query: Which bin should I file Nc1ccc(C(=O)O)c(O)c1 [AMINOSALICYLIC ACID] under?
Reply: high value

Query: Which bin should I file Cc1cc2c(s1)Nc1ccccc1N=C2N1CCN(C)CC1 [OLANZAPINE] under?
Reply: medium value

Query: Which bin should I file CCOc1cc(N)c(Cl)cc1C(=O)NCC1CN(Cc2ccc(F)cc2)CCO1 (configuration not stated) [MOSAPRIDE] under?
Reply: low value
